target: ^3H-5-HT uptake in synaptosomes (Rattus norvegicus, UniProt P31652); construct: Rest of the brain is gently homogenized (glass teflon homogenizer); from tissue; host or cells: rat brain without cerebellum, pons and medulla oblongata, synaptosomal P2 fraction; assay: Inhibition of 3H-5-HT uptake in synaptosomes in vitro; assay type: biochemical, Rats; settings: rat brain synaptosomes, 3H-5-HT 10 nM; read-out: Uptake Inhibition IC50 5-HT
Sequence (P31652 whole entry): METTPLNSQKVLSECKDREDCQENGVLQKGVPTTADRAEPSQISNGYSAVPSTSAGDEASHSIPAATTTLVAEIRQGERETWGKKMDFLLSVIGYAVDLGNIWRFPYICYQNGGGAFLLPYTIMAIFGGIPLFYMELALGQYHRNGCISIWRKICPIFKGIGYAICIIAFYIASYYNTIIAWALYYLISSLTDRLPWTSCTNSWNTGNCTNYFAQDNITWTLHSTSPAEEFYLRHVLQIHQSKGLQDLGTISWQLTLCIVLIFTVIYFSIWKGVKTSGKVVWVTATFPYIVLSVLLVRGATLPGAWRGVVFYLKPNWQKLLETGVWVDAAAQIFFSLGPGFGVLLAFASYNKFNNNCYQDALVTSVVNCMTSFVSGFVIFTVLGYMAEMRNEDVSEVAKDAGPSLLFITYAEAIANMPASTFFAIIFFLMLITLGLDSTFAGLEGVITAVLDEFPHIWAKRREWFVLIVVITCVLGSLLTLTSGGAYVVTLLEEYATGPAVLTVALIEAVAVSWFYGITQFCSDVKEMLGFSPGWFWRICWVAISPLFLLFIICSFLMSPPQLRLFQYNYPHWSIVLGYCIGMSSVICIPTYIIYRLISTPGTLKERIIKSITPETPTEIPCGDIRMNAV
pIC50: −log10 of the molar value.
Please enter fulfilled where pIC50 is greater than or equal to 8, and not fulfilled where it is lower.

* CN(C)[C@@H]1C[C@@H](c2ccc(N)cc2)c2ccc(F)cc21 (relative stereo) | not fulfilled
* CCN(CC)C1CC(c2ccc(F)cc2)c2ccc(F)cc21 (stereo not drawn) | not fulfilled
* CN(C)C1CC(c2ccc(Cl)cc2Cl)c2ccccc21 (stereo not drawn) | fulfilled
* CSc1ccc2c(c1)C(N(C)C)CC2c1ccc(F)cc1 (stereo not drawn) | fulfilled
* CN(C)C1CC(c2ccc(Cl)c(Cl)c2)c2ccccc21 (stereo not drawn) | fulfilled
* CCN(CC)[C@@H]1C[C@@H](c2ccc(F)cc2)c2ccc(F)cc21 (relative stereo) | not fulfilled

---

molecular target: ^3H-5-HT uptake in synaptosomes (Rattus norvegicus, UniProt P31652); construct: Rest of the brain is gently homogenized (glass teflon homogenizer); from tissue; host or cells: rat brain without cerebellum, pons and medulla oblongata, synaptosomal P2 fraction; experiment: Inhibition of 3H-5-HT uptake in synaptosomes in vitro; type: biochemical, Rats
outcomeMeasure: IC50 (nM)

- CN(C)C1CC(O)(c2ccc(Cl)c(Cl)c2)c2ccccc21 (stereo not shown): 1.7

---

target: ^3H-DA uptake in striatal synaptosomes (Rattus norvegicus); construct: the two corpura striata are dissected out and gently homogenized; from tissue; host or cells: rat corpus striatum, synaptosomal P2 fraction; experiment: biochemical; type: biochemical, Rats
outcomeMeasure: IC50 (µM)

• CN(C)CCC=C1c2ccccc2CCc2ccccc21 [Amitrip-tyline, amitriptyline, reference compound] = 5.4

---

biological target: ^3H-DA uptake in striatal synaptosomes (Rattus norvegicus, UniProt P23977); construct: the two corpura striata are dissected out and gently homogenized; from tissue; host or cells: rat corpus striatum, synaptosomal P2 fraction; assay: biochemical; type: biochemical, Rats; details: rat striatal synaptosomes, 3H-DA 12.5 nM; read-out: Uptake Inhibition IC50 DA
Sequence (P23977 whole entry): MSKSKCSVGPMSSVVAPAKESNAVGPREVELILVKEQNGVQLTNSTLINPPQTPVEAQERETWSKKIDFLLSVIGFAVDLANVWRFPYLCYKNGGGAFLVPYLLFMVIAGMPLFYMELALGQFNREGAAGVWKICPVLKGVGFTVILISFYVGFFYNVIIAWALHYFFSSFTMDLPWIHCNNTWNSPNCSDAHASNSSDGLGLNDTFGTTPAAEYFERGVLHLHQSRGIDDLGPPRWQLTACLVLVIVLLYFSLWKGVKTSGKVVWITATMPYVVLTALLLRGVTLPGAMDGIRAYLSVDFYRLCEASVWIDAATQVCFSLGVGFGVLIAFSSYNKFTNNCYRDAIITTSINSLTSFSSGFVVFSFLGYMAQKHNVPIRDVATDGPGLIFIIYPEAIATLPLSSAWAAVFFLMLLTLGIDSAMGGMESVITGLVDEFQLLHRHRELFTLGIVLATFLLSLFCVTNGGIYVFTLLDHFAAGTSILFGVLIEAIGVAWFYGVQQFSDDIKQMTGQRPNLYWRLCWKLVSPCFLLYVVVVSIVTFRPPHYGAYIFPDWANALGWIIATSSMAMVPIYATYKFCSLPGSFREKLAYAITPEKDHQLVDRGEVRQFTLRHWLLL
pIC50: −log10 of the molar value.
outcomeMeasure: pIC50

• CN(C)[C@@H]1C[C@@H](c2ccc(N)cc2)c2ccc(F)cc21 (relative stereo) = 6.72
• CCN(CC)[C@@H]1C[C@@H](c2ccc(F)cc2)c2ccc(C)cc21 (relative stereo) = 6.68
• CN(C)C1CC(c2ccc(F)cc2)c2ccccc21 (centres unmarked) = 6.60
• CSc1ccc2c(c1)C(N(C)C)CC2c1ccc(F)cc1 (centres unmarked) = 6.82
• CSc1ccc2c(c1)[C@H](N(C)C)C[C@H]2c1ccc(F)cc1 (relative stereo) = 6.77
• CN(C)C1CC(c2ccc(Cl)cc2Cl)c2ccccc21 (centres unmarked) = 6.07
• Cc1ccc2c(c1)[C@H](N(C)C)C[C@H]2c1ccc(F)cc1 (relative stereo) = 7.00
• CN(C)C1CC(c2ccc(N)cc2)c2ccc(F)cc21 (centres unmarked) = 6.77
• CCN(CC)C1CC(c2ccc(F)cc2)c2ccc(F)cc21 (centres unmarked) = 5.80
• CN(C)C1CC(c2ccc(F)cc2)c2ccc(C(F)(F)F)cc21 (centres unmarked) = 6.47
• CN(C)C1CC(O)(c2ccc(Cl)c(Cl)c2)c2ccccc21 (centres unmarked) = 6.89
• CCNC1CC(c2ccc(Cl)c(Cl)c2)c2ccccc21 (centres unmarked) = 7.21
• NC1CC(c2ccc(Cl)c(Cl)c2)c2ccccc21 (centres unmarked) = 8.13
• Cc1ccc2c(c1)C(N(C)C)CC2c1ccc(F)cc1 (centres unmarked) = 7.15
• CN(C)C1CC(c2ccc(F)cc2)c2ccc(F)cc21 (centres unmarked) = 6.36
• CN(C)C1CC(c2ccc(Cl)c(Cl)c2)c2ccccc21 (centres unmarked) = 7.57
• CCN(CC)[C@@H]1C[C@@H](c2ccc(F)cc2)c2ccc(F)cc21 (relative stereo) = 7.17

---

target: ^3H-DA uptake in striatal synaptosomes (Rattus norvegicus, UniProt P23977); construct: the two corpura striata are dissected out and gently homogenized; from tissue; host or cells: rat corpus striatum, synaptosomal P2 fraction; assay: biochemical; format: biochemical, Rats; conditions: read-out: Uptake Inhibition IC50 DA
outcomeMeasure: IC50 (µM)

- CN(C)C1CC(c2ccccc2)c2ccccc21 (centres unmarked) [Lu 19-025-c, reference compound]: 0.34
- CCN(CC)C1CC(c2ccc(Cl)c(Cl)c2)c2ccccc21 (centres unmarked): 0.12

---

Parameter: pIC50. Scope: all listed entries.
target: ^3H-5-HT uptake in synaptosomes (Rattus norvegicus); construct: Rest of the brain is gently homogenized (glass teflon homogenizer); from tissue; host or cells: rat brain without cerebellum, pons and medulla oblongata, synaptosomal P2 fraction; experiment: Inhibition of 3H-5-HT uptake in synaptosomes in vitro; assay type: biochemical, Rats; conditions: rat brain synaptosomes, 3H-5-HT 10 nM; read-out: Uptake Inhibition IC50 5-HT
pIC50: −log10 of the molar value.
outcomeMeasure: pIC50

* CSc1ccc2c(c1)[C@H](N(C)C)C[C@H]2c1ccc(F)cc1 (relative stereo) | 8.35
* CN(C)C1CC(c2ccc(F)cc2)c2ccc(F)cc21 (centres unmarked) | 8.92
* CN(C)C1CC(c2ccccc2)c2ccccc21 (centres unmarked) [Lu 19-025-c, reference compound] | 8.02
* Cc1ccc2c(c1)C(N(C)C)CC2c1ccc(F)cc1 (centres unmarked) | 8.85
* CN(C)C1CC(c2ccc(F)cc2)c2ccc(C(F)(F)F)cc21 (centres unmarked) | 8.37

---

Parameter: pIC50. Scope: all listed entries.
molecular target: ^3H-5-HT uptake in synaptosomes (Rattus norvegicus, UniProt P31652); construct: Rest of the brain is gently homogenized (glass teflon homogenizer); from tissue; host or cells: rat brain without cerebellum, pons and medulla oblongata, synaptosomal P2 fraction; assay: Inhibition of 3H-5-HT uptake in synaptosomes in vitro; assay type: biochemical, Rats; settings: rat brain synaptosomes, 3H-5-HT 10 nM; read-out: Uptake Inhibition IC50 5-HT
pIC50: −log10 of the molar value.
outcomeMeasure: pIC50

* Cc1ccc2c(c1)[C@H](N(C)C)C[C@H]2c1ccc(F)cc1 (relative stereo) | 8.01
* CCN(CC)C1CC(c2ccc(Cl)c(Cl)c2)c2ccccc21 (stereo not drawn) | 7.89
* NC1CC(c2ccc(Cl)c(Cl)c2)c2ccccc21 (stereo not drawn) | 7.82
